# target: Ec Hfq (Hfq102) (Escherichia coli, UniProt P0A6X3 1-102)
# assay notes: EMSA; Hill n 4.1; EMSA: 34 mM Tris-HCl pH 7.5, 50 mM NaCl, 50 mM KCl, 50 mM NH4Cl, 11.4 mM EDTA, 12% glycerol, 30 C, 30 min, ~1 nM 32P-RNA, Kd in Hfq6; anisotropy: 10 mM Tris-HCl
# conditions used: protein: recombinant; tags: untagged; chain copies: 6; label: 32P; stem-loops
observed property: pKd
// field semantics: pKd = negative decimal log of concentration (mol/L)

Look up and report measured pKd for this entry: RybB (structured_RNA) RNA: GGCCACUGCUUUUCUUUGAUGUCCCCAUUUUGUGGAGCCCAUCAACCCCGCCAUUUCGGUUCAAGGUUGAUGGGUUUUUU 7.67
